Test: AUCinfinity in female athymic nude Foxn1nu mouse at 30 mg/kg, po administered as single dose and measured after 24 hrs by LC/MS analysis
Format: ADME, organism-based
Conditions: in vivo
assay endpoint: AUC(0-inf)
Number plus unit, in that order.

Exam item: Given the compound "Cn1ccc([C@H]2C[C@H](N(c3cc(F)c(NC(=O)c4ccnn(-c5ccc(F)cn5)c4=O)cc3F)c3nccn4nccc34)C2)n1" , what is its reported AUC(0-inf)?
Marked response: 113 µg·h/mL

----------
Record form. Attribute: IC50. Fill in for each entry.
Target: Hepatocyte growth factor receptor (Homo sapiens, UniProt P08581, Y1230H)
Sequence (P08581 25-1390 Y1230H limits assumed): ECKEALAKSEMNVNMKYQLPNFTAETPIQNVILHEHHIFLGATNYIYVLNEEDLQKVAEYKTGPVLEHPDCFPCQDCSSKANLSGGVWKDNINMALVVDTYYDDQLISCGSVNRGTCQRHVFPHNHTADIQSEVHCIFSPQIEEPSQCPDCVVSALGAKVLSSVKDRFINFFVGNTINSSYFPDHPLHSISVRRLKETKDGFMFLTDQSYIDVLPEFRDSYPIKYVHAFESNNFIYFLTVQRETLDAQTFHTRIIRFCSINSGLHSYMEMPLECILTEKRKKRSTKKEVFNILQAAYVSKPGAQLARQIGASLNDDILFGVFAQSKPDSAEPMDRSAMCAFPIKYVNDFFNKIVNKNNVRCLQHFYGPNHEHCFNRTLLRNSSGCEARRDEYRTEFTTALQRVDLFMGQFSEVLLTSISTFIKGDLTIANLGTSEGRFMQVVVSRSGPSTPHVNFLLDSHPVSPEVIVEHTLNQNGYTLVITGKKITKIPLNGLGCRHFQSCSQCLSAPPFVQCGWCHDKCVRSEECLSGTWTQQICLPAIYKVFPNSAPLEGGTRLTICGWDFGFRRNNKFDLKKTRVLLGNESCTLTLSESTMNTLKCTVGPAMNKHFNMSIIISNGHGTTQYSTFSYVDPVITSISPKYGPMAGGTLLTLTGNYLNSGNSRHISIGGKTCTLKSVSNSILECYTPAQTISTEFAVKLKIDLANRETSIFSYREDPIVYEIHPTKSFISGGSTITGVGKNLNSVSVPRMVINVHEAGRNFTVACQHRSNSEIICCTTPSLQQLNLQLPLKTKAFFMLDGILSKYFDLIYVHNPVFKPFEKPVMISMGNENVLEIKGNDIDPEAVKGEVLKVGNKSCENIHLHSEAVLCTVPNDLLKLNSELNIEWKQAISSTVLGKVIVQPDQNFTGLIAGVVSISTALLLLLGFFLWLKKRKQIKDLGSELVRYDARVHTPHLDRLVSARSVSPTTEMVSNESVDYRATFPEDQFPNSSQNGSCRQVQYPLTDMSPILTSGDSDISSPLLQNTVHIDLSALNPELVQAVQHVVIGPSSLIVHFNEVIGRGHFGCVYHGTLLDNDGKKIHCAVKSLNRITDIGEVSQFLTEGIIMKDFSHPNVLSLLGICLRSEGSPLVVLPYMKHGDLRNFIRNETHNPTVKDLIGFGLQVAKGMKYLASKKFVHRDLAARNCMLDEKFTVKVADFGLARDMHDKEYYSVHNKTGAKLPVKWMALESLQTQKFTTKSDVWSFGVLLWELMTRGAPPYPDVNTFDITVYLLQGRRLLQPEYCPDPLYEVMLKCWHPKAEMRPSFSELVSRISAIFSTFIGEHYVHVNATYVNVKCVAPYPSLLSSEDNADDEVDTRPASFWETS
Experiment: Displacement of tracer 236 from N-terminal GST-tagged recombinant human MET Y1230H mutant (956 to end residues) expressed in Sf9 insect cells incubated for 1 hr by TR-FRET assay
Number plus unit, in that order.

Exam item: Given the compound "CCN(c1cc(F)c(NC(=O)c2ccnn(-c3ccc(F)cc3)c2=O)cc1F)c1cccn2nccc12" , what is its reported IC50?
Marked response: 38 nM

Exam item: Given the compound "Cc1cc(N(c2nccn3nccc23)[C@H]2C[C@H](c3ccn(C)n3)C2)c(F)cc1NC(=O)c1ccnn(-c2ccc(F)cn2)c1=O" , what is its reported IC50?
Marked response: 5 nM

Exam item: Given the compound "Cn1ccc([C@H]2C[C@H](N(c3cc(F)c(NC(=O)c4ccnn(-c5ccc(F)cn5)c4=O)cc3F)c3cccn4nccc34)C2)n1" , what is its reported IC50?
Marked response: 4 nM

----------
Assay: Metabolic stability in human hepatocytes assessed as clearance at 2 uM measured upto 120 mins by LC-MS/MS analysis
Type: ADME, cell-based, Hepatocyte
assay endpoint: CLhep predicted at 2 µM (L/h/kg)
# output: bare number, implied unit L/h/kg

Exam item: Given the compound "Cc1cc(N(c2nccn3nccc23)[C@H]2C[C@H](c3ccn(C)n3)C2)c(F)cc1NC(=O)c1ccnn(-c2ccc(F)cn2)c1=O" , what is its reported CLhep predicted at 2 µM?
Marked response: 1.32

Exam item: Given the compound "Cn1ccc([C@H]2C[C@H](N(c3cc(F)c(NC(=O)c4ccnn(-c5ccc(F)cn5)c4=O)cc3Cl)c3nccn4nccc34)C2)n1" , what is its reported CLhep predicted at 2 µM?
Marked response: 0.54

Exam item: Given the compound "COc1cc(N(c2cc(F)c(NC(=O)c3ccnn(-c4ccc(F)cn4)c3=O)cc2F)[C@H]2C[C@H](c3ccn(C)n3)C2)c2ccnn2c1" , what is its reported CLhep predicted at 2 µM?
Marked response: 0.72

Exam item: Given the compound "Cn1ccc([C@H]2C[C@H](N(c3cc(F)c(NC(=O)c4ccnn(-c5ccc(F)cn5)c4=O)cc3F)c3cccn4nccc34)C2)n1" , what is its reported CLhep predicted at 2 µM?
Marked response: 1.26

----------
Test: Tmax in female athymic nude Foxn1nu mouse at 30 mg/kg, po administered as single dose and measured after 24 hrs by LC/MS analysis
Type: ADME, organism-based
Conditions: in vivo
assay endpoint: Tmax (h)
# output: bare number, implied unit h

Exam item: Given the compound "Cn1ccc([C@H]2C[C@H](N(c3cc(F)c(NC(=O)c4ccnn(-c5ccc(F)cn5)c4=O)cc3F)c3nccn4nccc34)C2)n1" , what is its reported Tmax?
Marked response: 2

----------
Biological target: Hepatocyte growth factor receptor (Homo sapiens, UniProt P08581, D1228N)
Sequence (P08581 25-1390 D1228N limits assumed): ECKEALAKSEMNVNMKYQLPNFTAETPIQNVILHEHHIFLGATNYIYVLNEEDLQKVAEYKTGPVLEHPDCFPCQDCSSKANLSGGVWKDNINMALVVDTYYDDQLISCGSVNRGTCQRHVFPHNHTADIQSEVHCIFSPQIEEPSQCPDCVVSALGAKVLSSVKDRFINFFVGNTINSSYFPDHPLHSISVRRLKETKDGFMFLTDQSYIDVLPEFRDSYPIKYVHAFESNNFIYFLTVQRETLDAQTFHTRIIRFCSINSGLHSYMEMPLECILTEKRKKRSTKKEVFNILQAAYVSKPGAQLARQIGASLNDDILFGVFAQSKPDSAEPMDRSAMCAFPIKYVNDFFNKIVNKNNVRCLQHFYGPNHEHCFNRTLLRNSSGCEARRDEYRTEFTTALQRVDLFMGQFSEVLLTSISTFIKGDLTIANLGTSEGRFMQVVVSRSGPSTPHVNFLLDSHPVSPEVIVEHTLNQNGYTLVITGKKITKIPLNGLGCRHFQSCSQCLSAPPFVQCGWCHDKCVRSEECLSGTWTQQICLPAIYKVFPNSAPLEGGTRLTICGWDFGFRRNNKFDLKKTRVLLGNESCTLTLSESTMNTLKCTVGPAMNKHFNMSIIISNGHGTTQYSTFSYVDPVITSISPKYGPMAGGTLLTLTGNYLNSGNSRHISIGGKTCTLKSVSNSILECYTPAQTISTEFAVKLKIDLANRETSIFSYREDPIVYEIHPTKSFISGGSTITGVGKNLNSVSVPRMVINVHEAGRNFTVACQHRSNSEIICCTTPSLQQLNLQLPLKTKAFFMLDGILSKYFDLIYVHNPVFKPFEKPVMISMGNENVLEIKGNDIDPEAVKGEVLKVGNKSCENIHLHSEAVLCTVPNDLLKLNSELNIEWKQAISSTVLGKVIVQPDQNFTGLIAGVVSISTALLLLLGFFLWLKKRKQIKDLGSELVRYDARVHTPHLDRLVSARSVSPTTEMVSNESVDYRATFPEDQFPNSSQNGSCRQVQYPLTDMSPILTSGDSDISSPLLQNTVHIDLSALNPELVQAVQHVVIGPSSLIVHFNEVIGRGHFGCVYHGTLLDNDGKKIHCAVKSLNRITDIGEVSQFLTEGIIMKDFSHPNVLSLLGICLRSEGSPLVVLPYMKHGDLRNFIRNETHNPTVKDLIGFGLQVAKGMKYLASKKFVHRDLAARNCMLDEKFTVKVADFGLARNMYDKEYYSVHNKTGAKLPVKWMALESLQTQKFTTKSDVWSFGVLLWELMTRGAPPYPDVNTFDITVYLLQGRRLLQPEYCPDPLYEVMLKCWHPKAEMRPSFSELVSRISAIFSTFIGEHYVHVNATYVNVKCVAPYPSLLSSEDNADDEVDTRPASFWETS
Experiment: Displacement of tracer 236 from N-terminal GST-tagged recombinant human MET D1228N mutant (956 to end residues) expressed in Sf9 insect cells incubated for 1 hr by TR-FRET assay
Class key for IC50 values: low value: < 0.009 µM; medium value: ≥ 0.009 µM and < 0.06 µM; high value: ≥ 0.06 µM

Exam item: Field: class (IC50) — entry: "Cn1ccc([C@H]2C[C@H](N(c3cc(F)c(NC(=O)c4ccnn(-c5ccc(F)cn5)c4=O)cc3F)c3cc(F)cn4nccc34)C2)n1"
Marked response: medium value

Exam item: Field: class (IC50) — entry: "Cn1ccc(CCN(c2cc(F)c(NC(=O)c3ccnn(-c4ccc(F)cn4)c3=O)cc2F)c2cccn3nccc23)n1"
Marked response: low value

Exam item: Field: class (IC50) — entry: "Cn1ccc([C@H]2C[C@H](N(c3cc(Cl)c(NC(=O)c4ccnn(-c5ccc(F)cn5)c4=O)cc3F)c3nccn4nccc34)C2)n1"
Marked response: medium value

Exam item: Field: class (IC50) — entry: "CC(C)(C#N)CN(c1cc(F)c(NC(=O)c2ccnn(-c3ccc(F)cn3)c2=O)cc1F)c1cccn2nccc12"
Marked response: low value

Exam item: Field: class (IC50) — entry: "O=C(Nc1cc(F)c(N(c2cccn3nccc23)C2CCC2)cc1F)c1ccnn(-c2ccc(F)cc2)c1=O"
Marked response: medium value

Exam item: Field: class (IC50) — entry: "Cc1cc2c(N(c3cc(F)c(NC(=O)c4ccnn(-c5ccc(F)cn5)c4=O)cc3F)[C@H]3C[C@H](c4ccn(C)n4)C3)nccn2n1"
Marked response: high value

Exam item: Field: class (IC50) — entry: "CC(C)N(c1cc(F)c(NC(=O)c2ccnn(-c3ccc(F)cc3)c2=O)cc1F)c1cccn2nccc12"
Marked response: high value

Exam item: Field: class (IC50) — entry: "Cn1ccc([C@H]2C[C@H](N(c3cc(F)c(NC(=O)c4ccnn(-c5ccc(F)cn5)c4=O)cc3F)c3cccn4nccc34)C2)n1"
Marked response: low value

Exam item: Field: class (IC50) — entry: "CCN(c1cc(F)c(NC(=O)c2ccnn(-c3ccc(F)cc3)c2=O)cc1F)c1cccn2nccc12"
Marked response: high value

Exam item: Field: class (IC50) — entry: "Cn1ccc([C@H]2C[C@H](N(c3cc(C(F)F)c(NC(=O)c4ccnn(-c5ccc(F)cn5)c4=O)cc3F)c3nccn4nccc34)C2)n1"
Marked response: high value

Exam item: Field: class (IC50) — entry: "Cc1cc(N(c2nccn3nccc23)[C@H]2C[C@H](c3ccn(C)n3)C2)c(F)cc1NC(=O)c1ccnn(-c2ccc(F)cn2)c1=O"
Marked response: medium value

Exam item: Field: class (IC50) — entry: "O=C(Nc1cc(F)c(Oc2cccn3nccc23)cc1F)c1ccnn(-c2ccc(F)cc2)c1=O"
Marked response: high value

Exam item: Field: class (IC50) — entry: "COc1cc(N(c2cc(F)c(NC(=O)c3ccnn(-c4ccc(F)cn4)c3=O)cc2F)[C@H]2C[C@H](c3ccn(C)n3)C2)c2ccnn2c1"
Marked response: medium value

Exam item: Field: class (IC50) — entry: "CO[C@H]1C[C@@H](N(c2cc(F)c(NC(=O)c3ccnn(-c4ccc(F)cn4)c3=O)cc2F)c2cccn3nccc23)C1"
Marked response: low value

----------
Record form. Attribute: efflux ratio at 2 h, 1 µM. Fill in for each entry.
Test: Efflux ratio of apparent permeability across basolateral to apical over apical to basolateral side in MDCKII-MDR1 cells at 1 uM incubated for 2 hrs in orbital shaker by LC-MS/MS analysis
Type: ADME, cell-based, Canis lupus familiaris
Conditions: dog, MDCK-MDR1
Please respond with just the number, no unit label.

Exam item: Given the compound "Cc1cc2c(N(c3cc(F)c(NC(=O)c4ccnn(-c5ccc(F)cn5)c4=O)cc3F)[C@H]3C[C@H](c4ccn(C)n4)C3)nccn2n1" , what is its reported efflux ratio at 2 h, 1 µM?
Marked response: 0.9

Exam item: Given the compound "Cn1ccc([C@H]2C[C@H](N(c3cc(F)c(NC(=O)c4ccnn(-c5ccc(F)cn5)c4=O)cc3F)c3nccn4nccc34)C2)n1" , what is its reported efflux ratio at 2 h, 1 µM?
Marked response: 1.1

Exam item: Given the compound "Cn1ccc([C@H]2C[C@H](N(c3cc(Cl)c(NC(=O)c4ccnn(-c5ccc(F)cn5)c4=O)cc3F)c3nccn4nccc34)C2)n1" , what is its reported efflux ratio at 2 h, 1 µM?
Marked response: 1

Exam item: Given the compound "Cc1cc(N(c2nccn3nccc23)[C@H]2C[C@H](c3ccn(C)n3)C2)c(F)cc1NC(=O)c1ccnn(-c2ccc(F)cn2)c1=O" , what is its reported efflux ratio at 2 h, 1 µM?
Marked response: 0.9

----------
Target: Hepatocyte growth factor receptor (Homo sapiens, UniProt P08581, Y1230H)
Experiment: Displacement of tracer 236 from N-terminal GST-tagged recombinant human MET Y1230H mutant (956 to end residues) expressed in Sf9 insect cells incubated for 1 hr by TR-FRET assay
pIC50: −log10 of the molar value.
Binary call on pIC50: Condition met from 8 upward, Condition not met beneath that.

Exam item: Check this compound for pIC50 at or above 8: "Cc1cc2c(N(c3cc(F)c(NC(=O)c4ccnn(-c5ccc(F)cn5)c4=O)cc3F)[C@H]3C[C@H](c4ccn(C)n4)C3)nccn2n1"
Marked response: Condition not met

Exam item: Check this compound for pIC50 at or above 8: "CC(C)N(c1cc(F)c(NC(=O)c2ccnn(-c3ccc(F)cc3)c2=O)cc1F)c1cccn2nccc12"
Marked response: Condition not met

Exam item: Check this compound for pIC50 at or above 8: "O=C(Nc1cc(F)c(N(c2cccn3nccc23)C2CCC2)cc1F)c1ccnn(-c2ccc(F)cc2)c1=O"
Marked response: Condition not met

Exam item: Check this compound for pIC50 at or above 8: "Cc1cc(N(c2cc(F)c(NC(=O)c3ccnn(-c4ccc(F)cn4)c3=O)cc2F)[C@H]2C[C@H](c3ccn(C)n3)C2)c(F)cn1"
Marked response: Condition met

Exam item: Check this compound for pIC50 at or above 8: "Cn1ccc(CCN(c2cc(F)c(NC(=O)c3ccnn(-c4ccc(F)cn4)c3=O)cc2F)c2cccn3nccc23)n1"
Marked response: Condition met

Exam item: Check this compound for pIC50 at or above 8: "Cn1ccc([C@H]2C[C@H](N(c3cc(C(F)F)c(NC(=O)c4ccnn(-c5ccc(F)cn5)c4=O)cc3F)c3nccn4nccc34)C2)n1"
Marked response: Condition not met

Exam item: Check this compound for pIC50 at or above 8: "Cn1ccc([C@H]2C[C@H](N(c3cc(F)c(NC(=O)c4ccnn(-c5ccc(F)cn5)c4=O)cc3F)c3nccn4nccc34)C2)n1"
Marked response: Condition met

Exam item: Check this compound for pIC50 at or above 8: "CC(C)(C#N)CN(c1cc(F)c(NC(=O)c2ccnn(-c3ccc(F)cn3)c2=O)cc1F)c1cccn2nccc12"
Marked response: Condition met

Exam item: Check this compound for pIC50 at or above 8: "O=C(Nc1cc(F)c(Oc2cccn3nccc23)cc1F)c1ccnn(-c2ccc(F)cc2)c1=O"
Marked response: Condition not met
